biological target: OR7D4 (Homo sapiens); conditions: stereoisomer not certain
recordedMetric: odorant receptor agonist call

CC1CCCCCCCCCCCCC(=O)C1 (stereo not drawn) | inactive
CCC1OC(C)=C(O)C1=O (stereo not drawn) | inactive
CCCC(S)CCOC(C)=O (stereo not drawn) | inactive

----------
molecular target: OR52E4 (Homo sapiens) (UniProt Q8NGH9); settings: stereoisomer not certain
Sequence (Q8NGH9 whole entry): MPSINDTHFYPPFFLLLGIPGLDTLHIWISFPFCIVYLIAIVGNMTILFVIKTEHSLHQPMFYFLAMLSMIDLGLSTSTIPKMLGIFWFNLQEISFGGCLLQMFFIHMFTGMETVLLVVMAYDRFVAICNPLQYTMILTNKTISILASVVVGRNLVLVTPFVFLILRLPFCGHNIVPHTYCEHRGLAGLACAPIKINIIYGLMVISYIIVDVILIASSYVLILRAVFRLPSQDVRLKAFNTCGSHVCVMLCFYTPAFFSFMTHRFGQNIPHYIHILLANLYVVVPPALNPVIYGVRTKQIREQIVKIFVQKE
recordedMetric: odorant receptor agonist call

Here are 6 molecules together with their reported answers.
CCCCCC1CCCC(=O)O1 (configuration not stated) | inactive
CCCCC(S)C(C)CO (configuration not stated) | inactive
CC(=O)c1c(C)c([N+](=O)[O-])c(C(C)(C)C)c([N+](=O)[O-])c1C | inactive
CC1=C(O)C(=O)C(C)O1 (configuration not stated) | inactive
Cc1cnc(C)c(C)n1 | inactive
CCCC(S)CCOC(C)=O (configuration not stated) | inactive

Batch lookup, odorant receptor agonist call per entry.
1. CC1=C(O)C(=O)OC1C (configuration not stated)
2. CCC1OC(C)=C(O)C1=O (configuration not stated)

*A*
1: inactive; 2: inactive

----------
biological target: UniProt Q99NH4; conditions: stereoisomer not certain
Sequence (Q99NH4 as listed by the source): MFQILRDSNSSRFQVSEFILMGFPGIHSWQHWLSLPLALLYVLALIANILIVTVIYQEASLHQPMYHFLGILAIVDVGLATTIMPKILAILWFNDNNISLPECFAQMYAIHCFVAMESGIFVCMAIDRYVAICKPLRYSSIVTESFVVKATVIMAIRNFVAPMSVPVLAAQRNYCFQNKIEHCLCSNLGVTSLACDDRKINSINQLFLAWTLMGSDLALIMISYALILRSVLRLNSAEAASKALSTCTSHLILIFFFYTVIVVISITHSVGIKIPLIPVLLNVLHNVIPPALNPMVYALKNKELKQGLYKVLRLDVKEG
recordedMetric: odorant receptor agonist call

Here are 4 compounds together with their reported answers.
O=C([O-])CCC(=O)[O-].[H+].[H+] | inactive
CCCCC=O | inactive
CCCCCCCCCCCC(=O)O | inactive
O=C([O-])CCCC(=O)[O-].[H+].[H+] | inactive

Batch lookup, odorant receptor agonist call per entry.
1. CCCCCC=O
2. CCCCCCCCCCO
3. O=C(O)CCCCCCCCC(=O)O
4. CCCCC(=O)O

*A*
1. inactive
2. inactive
3. inactive
4. inactive

----------
test system: OR1N2; details: stereoisomer not certain
Sequence (as listed by the source): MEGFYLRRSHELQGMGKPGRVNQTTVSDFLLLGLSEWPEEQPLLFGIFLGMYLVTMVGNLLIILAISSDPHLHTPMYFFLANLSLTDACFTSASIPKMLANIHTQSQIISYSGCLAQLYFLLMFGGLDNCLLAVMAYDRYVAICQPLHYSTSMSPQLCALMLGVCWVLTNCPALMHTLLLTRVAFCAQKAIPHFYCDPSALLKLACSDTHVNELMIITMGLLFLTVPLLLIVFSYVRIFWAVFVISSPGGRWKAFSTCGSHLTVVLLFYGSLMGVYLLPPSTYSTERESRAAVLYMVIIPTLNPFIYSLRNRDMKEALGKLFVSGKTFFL
recordedMetric: odorant receptor agonist call

CC(CO)CS (centres undefined) | inactive
CC1=C(O)C(=O)OC1C (centres undefined) | inactive
CCCCCCC=CCCC=O | inactive
CCCCCC(S)C(C)CO (centres undefined) | inactive

Batch lookup, odorant receptor agonist call per entry.
1. CC1=C(O)C(=O)C(C)O1 (centres undefined)
2. CCCCC(S)C(C)CO (centres undefined)
3. CC1CCCCCCCCCCCCC(=O)C1 (centres undefined)
4. CCC1OC(C)=C(O)C1=O (centres undefined)
5. Cc1cnc(C)c(C)n1

*A*
inactive
inactive
inactive
inactive
inactive

----------
target: OR1G1 (Homo sapiens) (UniProt P47890); conditions: stereoisomer not certain
Sequence (P47890 whole entry): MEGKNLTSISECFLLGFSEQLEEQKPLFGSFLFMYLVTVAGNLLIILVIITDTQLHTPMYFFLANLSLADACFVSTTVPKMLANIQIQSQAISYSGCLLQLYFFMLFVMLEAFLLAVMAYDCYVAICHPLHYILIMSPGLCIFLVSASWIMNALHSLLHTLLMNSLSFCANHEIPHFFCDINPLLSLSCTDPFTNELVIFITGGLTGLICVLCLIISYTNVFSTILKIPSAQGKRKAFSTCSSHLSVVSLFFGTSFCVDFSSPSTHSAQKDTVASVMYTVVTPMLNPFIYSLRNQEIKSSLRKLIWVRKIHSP
Your response should consist of one outcome taken from 1 = active, 0 = inactive

CC(=O)C(C)O (stereo not drawn) | 1
CC(=O)C=CC1=C(C)CCCC1(C)C | 0

API: the following record is the query input.
*Q* Name the outcome recorded for CCCCCCO in the assay.
*A* 1

----------
target: Or7a40 (Mus musculus); conditions: stereoisomer not certain
Your response should consist of one outcome taken from active, inactive

CCCCOC=O | inactive
CCCCCC=O | inactive
O=C(c1ccccc1)c1ccccc1 | inactive
CCCCCCCC(=O)[O-].[H+] | inactive
CCCCC(=O)CC | inactive
CCCCCCO | inactive
CCC(=O)O | inactive
CCCCCC1=C(C)CCC1=O | active
COc1cc(C(=O)O)ccc1O | inactive
CCCCC(C)=O | inactive

*Q* Name the outcome recorded for CCCCCCC(=O)[O-].[H+] in the assay.
*A* inactive
